METHOD_DESCRIPTION: viability loss in pontine glioma line – cell-based, SU-DIPG-XIII, MIPE4.0, CellTiter-Glo, qHTS, dose response (AID 1347061);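 note: cells exposed to compound for 48 hours before readout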
CONDITION_SUMMARY: CellTiter-Glo ATP luminescence
Records with an inconclusive call do not appear. Activity calls are given as the source filed them. No cut-off is given here; in the data, nearly all actives have AC50 up to about 37 µM.
ENDPOINT_NAME: AC50

1) C[C@H](CCC(=O)O)[C@H]1CCC2C3C[C@H](O)[C@@H]4C[C@H](O)CC[C@]4(C)C3CC[C@@]21C (stereo partly drawn) ... inactive
2) C=C1/C(=C/C=C2\CCCC3(C)[C@@H]([C@H](C)/C=C/C=C/C(O)(CC)CC)CC[C@@H]23)C[C@@H](O)C[C@@H]1O (stereo partly drawn) ... 18.7 µM (active)
3) C[C@@H](O)[C@H]1C(=O)N2C(C(=O)OCOC(=O)C(C)(C)C)=C(SC3CN(C4=NCCS4)C3)[C@H](C)[C@H]12 ... inactive
4) c1ccc(-c2nn3c(c2-c2ccnc4cc(OCCN5CCOCC5)ccc24)CCC3)nc1 ... inactive
5) CCN1C[C@H](C)n2c(c(O)c3c(=O)n(Cc4ccc(F)c(Cl)c4)nc(C(=O)NC)c32)C1=O ... inactive

Problem: I am curious: what AC50 value has been reported for CNC(=O)c1ccc2cc(C3(O)CCn4cncc43)ccc2c1 (stereo not drawn) ?
Result: inactive

Problem: I am curious: what AC50 value has been reported for `Cc1cc(C(=O)NOCCO)c(Nc2ccc(I)cc2F)n(C)c1=O` ?
Result: 0.132 µM (active)

Problem: I am curious: what AC50 value has been reported for `Cc1cnc(-c2cc(N3CCN(C(=O)CCS(C)(=O)=O)CC3)ncc2Cl)c(C)c1` ?
Result: inactive

Problem: I am curious: what AC50 value has been reported for COc1ccc(-c2oc3c(CC=C(C)C)c(OC4O[C@H](CO)[C@@H](O)[C@H](O)[C@H]4O)cc(O)c3c(=O)c2OC2O[C@@H](C)[C@H](O)[C@@H](O)[C@H]2O)cc1 (stereo partly drawn) ?
Result: inactive
